# Subject of test: Focal adhesion kinase 1 (Homo sapiens, UniProt Q05397)
# Sequence (Q05397 whole entry): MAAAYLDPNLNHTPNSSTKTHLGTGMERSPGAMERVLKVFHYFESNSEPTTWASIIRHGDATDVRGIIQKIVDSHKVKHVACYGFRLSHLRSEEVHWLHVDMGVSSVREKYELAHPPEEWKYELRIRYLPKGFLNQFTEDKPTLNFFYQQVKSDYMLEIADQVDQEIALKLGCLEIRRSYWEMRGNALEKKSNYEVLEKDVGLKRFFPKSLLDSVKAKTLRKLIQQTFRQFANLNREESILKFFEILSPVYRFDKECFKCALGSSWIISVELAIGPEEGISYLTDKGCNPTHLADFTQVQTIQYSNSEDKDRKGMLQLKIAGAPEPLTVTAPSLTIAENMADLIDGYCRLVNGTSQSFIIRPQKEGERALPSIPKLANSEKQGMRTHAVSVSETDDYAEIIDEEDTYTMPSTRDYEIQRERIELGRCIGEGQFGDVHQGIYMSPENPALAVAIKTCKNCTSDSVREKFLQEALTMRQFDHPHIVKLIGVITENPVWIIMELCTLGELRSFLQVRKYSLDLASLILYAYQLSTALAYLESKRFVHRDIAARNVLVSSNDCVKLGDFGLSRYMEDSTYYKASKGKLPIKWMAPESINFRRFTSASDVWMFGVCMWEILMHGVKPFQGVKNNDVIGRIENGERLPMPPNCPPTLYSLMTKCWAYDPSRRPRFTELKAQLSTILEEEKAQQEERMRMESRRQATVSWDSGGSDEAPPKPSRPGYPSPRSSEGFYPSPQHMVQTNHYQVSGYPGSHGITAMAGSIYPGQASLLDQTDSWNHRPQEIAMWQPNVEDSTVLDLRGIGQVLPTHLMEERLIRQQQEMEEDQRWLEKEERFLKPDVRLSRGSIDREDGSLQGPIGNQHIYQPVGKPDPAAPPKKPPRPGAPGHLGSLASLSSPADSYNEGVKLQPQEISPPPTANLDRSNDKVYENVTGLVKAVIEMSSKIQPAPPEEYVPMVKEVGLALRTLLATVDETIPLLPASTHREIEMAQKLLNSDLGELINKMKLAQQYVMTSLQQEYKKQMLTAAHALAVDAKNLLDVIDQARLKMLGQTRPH
# Measurement notes: Inhibition of human recombinant full-length FAK using ATP and Poly Glu:Tyr as substrate after 4 hrs by luminescence analysis
pIC50: −log10 of the molar value.
Experimental readout: pIC50

- Smi: "O=C(CCCn1[se]c2ccccc2c1=O)N[C@@H]1O[C@H](CO)[C@@H](O)[C@H](O)[C@H]1O"
  Recorded result: 6.02
- Smi: "CC(=O)OC[C@H]1O[C@@H](NC(=O)CCCn2[se]c3ccccc3c2=O)[C@H](OC(C)=O)[C@@H](OC(C)=O)[C@@H]1OC(C)=O"
  Recorded result: 6.04

====

# Subject of test: Serine/threonine-protein kinase pim-1 (Homo sapiens)
# Measurement notes: Inhibition of PIM1 at 1 uM
Recorded inhibition for the following molecules

- Smi: "CC(=O)OC[C@H]1O[C@@H](NC(=O)CCCn2[se]c3ccccc3c2=O)[C@H](OC(C)=O)[C@@H](OC(C)=O)[C@@H]1OC(C)=O"
  Reading unit: "%"
  inhibition: 0
- Smi: "O=C(CCCn1[se]c2ccccc2c1=O)N[C@@H]1O[C@H](CO)[C@@H](O)[C@H](O)[C@H]1O"
  Reading unit: "%"
  inhibition: 0
- Smi: "O=c1c2ccccc2[se]n1-c1ccccc1"
  Reading unit: "%"
  inhibition: 0
- Smi: "CC(=O)OC[C@H]1O[C@@H](O[C@H]2[C@H](OC(C)=O)[C@@H](OC(C)=O)[C@H](n3[se]c4ccccc4c3=O)O[C@@H]2COC(C)=O)[C@H](OC(C)=O)[C@@H](OC(C)=O)[C@H]1OC(C)=O"
  Reading unit: "%"
  inhibition: 0

====

# Subject of test: Protein kinase C alpha type (Homo sapiens, UniProt P17252)
# Measurement notes: Inhibition of PKCalpha at 1 uM
We begin with a simple list: items and their reported inhibition.
Experimental readout: inhibition (%)

- Smi: "CC(=O)OC[C@H]1O[C@@H](NC(=O)CCCn2[se]c3ccccc3c2=O)[C@H](OC(C)=O)[C@@H](OC(C)=O)[C@@H]1OC(C)=O"
  Reading unit: "%"
  Recorded result: 77
- Smi: "O=C(CCCn1[se]c2ccccc2c1=O)N[C@@H]1O[C@H](CO)[C@@H](O)[C@H](O)[C@H]1O"
  Reading unit: "%"
  Recorded result: 74
- Smi: "O=c1c2ccccc2[se]n1-c1ccccc1"
  Reading unit: "%"
  Recorded result: 25
- Smi: "CC(=O)OC[C@H]1O[C@@H](O[C@H]2[C@H](OC(C)=O)[C@@H](OC(C)=O)[C@H](n3[se]c4ccccc4c3=O)O[C@@H]2COC(C)=O)[C@H](OC(C)=O)[C@@H](OC(C)=O)[C@H]1OC(C)=O"
  Reading unit: "%"
  Recorded result: 95

====

# Subject of test: Inhibitor of nuclear factor kappa-B kinase subunit epsilon (Homo sapiens) (UniProt Q14164)
# Sequence (Q14164 whole entry): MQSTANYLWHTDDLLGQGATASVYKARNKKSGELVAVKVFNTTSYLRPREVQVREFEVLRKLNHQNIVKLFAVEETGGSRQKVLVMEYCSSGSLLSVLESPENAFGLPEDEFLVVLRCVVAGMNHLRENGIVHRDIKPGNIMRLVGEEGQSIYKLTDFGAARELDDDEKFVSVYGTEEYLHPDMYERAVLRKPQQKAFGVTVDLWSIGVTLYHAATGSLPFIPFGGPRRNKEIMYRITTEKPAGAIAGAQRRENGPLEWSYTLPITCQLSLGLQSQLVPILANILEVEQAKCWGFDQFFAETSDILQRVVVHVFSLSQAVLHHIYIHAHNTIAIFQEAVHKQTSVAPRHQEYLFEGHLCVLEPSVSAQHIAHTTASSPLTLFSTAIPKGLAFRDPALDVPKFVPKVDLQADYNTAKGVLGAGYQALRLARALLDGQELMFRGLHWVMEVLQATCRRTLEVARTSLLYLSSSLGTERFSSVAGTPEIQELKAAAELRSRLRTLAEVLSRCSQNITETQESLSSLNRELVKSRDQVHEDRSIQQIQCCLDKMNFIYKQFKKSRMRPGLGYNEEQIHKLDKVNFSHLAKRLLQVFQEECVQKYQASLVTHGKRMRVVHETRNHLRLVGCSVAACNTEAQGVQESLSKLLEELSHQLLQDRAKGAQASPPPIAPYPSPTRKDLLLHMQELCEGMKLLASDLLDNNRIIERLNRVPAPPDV
# Measurement notes: Inhibition of IKKepsilon at 1 uM

- Smi: "CC(=O)OC[C@H]1O[C@@H](O[C@H]2[C@H](OC(C)=O)[C@@H](OC(C)=O)[C@H](n3[se]c4ccccc4c3=O)O[C@@H]2COC(C)=O)[C@H](OC(C)=O)[C@@H](OC(C)=O)[C@H]1OC(C)=O"
  inhibition: "0%"
- Smi: "O=C(CCCn1[se]c2ccccc2c1=O)N[C@@H]1O[C@H](CO)[C@@H](O)[C@H](O)[C@H]1O"
  inhibition: "0%"
- Smi: "O=c1c2ccccc2[se]n1-c1ccccc1"
  inhibition: "0%"
- Smi: "CC(=O)OC[C@H]1O[C@@H](NC(=O)CCCn2[se]c3ccccc3c2=O)[C@H](OC(C)=O)[C@@H](OC(C)=O)[C@@H]1OC(C)=O"
  inhibition: "0%"

====

As a worked illustration, we turn to IC50 data collected for RAC-alpha serine/threonine-protein kinase (Homo sapiens, UniProt P31749).
Experimental readout: IC50 (nM)

- Smi: "O=C(CCCn1[se]c2ccccc2c1=O)N[C@@H]1O[C@H](CO)[C@@H](O)[C@H](O)[C@H]1O"
  Reading unit: "nM"
  Recorded result: 880
- Smi: "CC(=O)OC[C@H]1O[C@@H](NC(=O)CCCn2[se]c3ccccc3c2=O)[C@H](OC(C)=O)[C@@H](OC(C)=O)[C@@H]1OC(C)=O"
  Reading unit: "nM"
  Recorded result: 800
